# MEASURED TARGET: human NCX1 (Homo sapiens, UniProt P32418)
# Construct: expressed in transfected cells
# PROCEDURE TEXT: NCX1 inhibition, reverse mode (Ca2+ influx into cells), FLIPR Fluo-4 assay
# Type: cell-based
# CONDITION NOTES: inhibition of NCX1 in reverse mode (Ca2+ influx into cells); read-out: NCX1rv IC50
Structures can show the parent of a compound that is named as a salt.
ASSAY ENDPOINT: IC50 (nM)
// note: answer is a bare numeric in nM

Reference set, count: 3
>>> reported_result("O=C(c1cnc(Oc2ccc3c(c2)CCC(c2ccccc2)O3)s1)N1CCCCC1 (stereo not drawn) [compound 316]")
500
>>> reported_result("Cc1nc(Oc2ccc3c(c2)CC[C@@H](c2ccccc2)O3)sc1C(=O)NCc1ccno1 [compound 168]")
200
>>> reported_result("O=C(NCc1nnc2n1CCC2)c1cnc(Oc2ccc3c(c2)CCC(c2cccc(F)c2)O3)s1 (stereo not drawn) [Example 20, hydrochloride]")
200

Which IC50 value is on record for CCn1ccc(C(=O)NCc2cnc(Oc3ccc4c(c3)CCC(c3ccccc3)O4)s2)n1 (stereo not drawn) [compound 93] ?
500

Which IC50 value is on record for O=C(NCc1cnc(Oc2ccc3c(c2)CCC(c2ccccc2)O3)s1)c1ccncc1Cl (stereo not drawn) [compound 80] ?
200

Which IC50 value is on record for Cc1cc(CNCc2cnc(Oc3ccc4c(c3)CCC(c3ccccc3)O4)s2)on1 (stereo not drawn) [compound 160] ?
200

Which IC50 value is on record for O=C(NCc1ccno1)c1cnc(Oc2ccc3c(c2)CCC(c2cc(F)ccc2F)O3)s1 (stereo not drawn) [compound 217] ?
200

Which IC50 value is on record for Cc1noc(C)c1CCNC(=O)c1cnc(Oc2ccc3c(c2)CCC(c2ccccc2)O3)s1 (stereo not drawn) [compound 34] ?
200

Which IC50 value is on record for O=C(NCc1cnc(Oc2ccc3c(c2)CCC(c2cccc(F)c2)O3)s1)c1cccnc1 (stereo not drawn) [compound 44, hydrochloride] ?
200

###

# MEASURED TARGET: human NCX1 (Homo sapiens, UniProt P32418)
# Construct: expressed in transfected cells
# PROCEDURE TEXT: NCX1 inhibition, reverse mode (Ca2+ influx into cells), FLIPR Fluo-4 assay
# Type: cell-based
# CONDITION NOTES: inhibition of NCX1 in reverse mode (Ca2+ influx into cells); read-out: NCX1rv IC50
Counter-ions that a name gives are not always drawn.
Could you mark each record true (1) if its IC50 falls strictly under 800 nM, and false (0) if it equals or exceeds it?

>>> assigned_category("CN(C)CC1CN(C(=O)c2cnc(Oc3ccc4c(c3)CC[C@@H](c3ccccc3)O4)s2)CCO1 (stereo partly drawn)")
"false (0)"
>>> assigned_category("CC1(C(=O)O)CCN(C(=O)c2cnc(Oc3ccc4c(c3)CC[C@@H](c3ccccc3)O4)s2)C1 (stereo partly drawn)")
"false (0)"
>>> assigned_category("CC(C)NCc1cnc(Oc2ccc3c(c2)CCC(c2ccccc2)O3)s1 (stereo not drawn)")
"true (1)"
>>> assigned_category("CO[C@H]1CNC[C@@H]1NC(=O)c1cnc(Oc2ccc3c(c2)CCC(c2cccnc2)O3)s1 (stereo partly drawn) [compound 269, hydrochloride]")
"false (0)"

Just wondering, is IC50 of O=C(NCc1ccno1)c1csc(Oc2ccc3c(c2)CC[C@@H](c2ccccc2)O3)n1 below 800 nM?
true (1)

The origin of these recorded values is patent US20140243292A1.
